pIC50: −log10 of the molar value.
// values below are pIC50; system is PI3K δ (Homo sapiens)
Sequence (O00329 whole entry): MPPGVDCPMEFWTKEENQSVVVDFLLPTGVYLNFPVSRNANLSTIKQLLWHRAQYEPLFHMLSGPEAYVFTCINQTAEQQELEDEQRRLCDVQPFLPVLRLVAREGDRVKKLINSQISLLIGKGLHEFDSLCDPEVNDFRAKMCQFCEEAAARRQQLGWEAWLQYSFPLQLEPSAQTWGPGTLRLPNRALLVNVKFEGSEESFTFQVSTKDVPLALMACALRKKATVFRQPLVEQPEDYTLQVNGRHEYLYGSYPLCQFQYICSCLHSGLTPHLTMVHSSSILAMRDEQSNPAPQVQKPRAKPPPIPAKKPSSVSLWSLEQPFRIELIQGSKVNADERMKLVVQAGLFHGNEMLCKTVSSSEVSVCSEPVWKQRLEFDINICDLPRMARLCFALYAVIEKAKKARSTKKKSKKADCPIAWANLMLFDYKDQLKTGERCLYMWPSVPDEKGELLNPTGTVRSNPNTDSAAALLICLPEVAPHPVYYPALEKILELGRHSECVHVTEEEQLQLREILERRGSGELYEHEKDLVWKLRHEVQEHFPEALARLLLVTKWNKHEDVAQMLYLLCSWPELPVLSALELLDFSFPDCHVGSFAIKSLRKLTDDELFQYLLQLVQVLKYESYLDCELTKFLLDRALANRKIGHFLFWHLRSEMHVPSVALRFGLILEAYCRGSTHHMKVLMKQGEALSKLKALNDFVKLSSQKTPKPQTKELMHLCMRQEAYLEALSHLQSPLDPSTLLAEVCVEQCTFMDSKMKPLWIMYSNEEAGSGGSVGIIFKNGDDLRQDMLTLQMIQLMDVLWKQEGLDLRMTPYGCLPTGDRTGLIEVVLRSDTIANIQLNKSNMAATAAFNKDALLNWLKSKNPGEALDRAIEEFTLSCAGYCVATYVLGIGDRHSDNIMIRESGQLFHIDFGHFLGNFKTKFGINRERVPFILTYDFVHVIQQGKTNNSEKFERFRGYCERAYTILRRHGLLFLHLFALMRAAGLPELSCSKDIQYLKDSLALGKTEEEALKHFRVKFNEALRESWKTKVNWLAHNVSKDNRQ
Sequence (P27986 whole entry partner): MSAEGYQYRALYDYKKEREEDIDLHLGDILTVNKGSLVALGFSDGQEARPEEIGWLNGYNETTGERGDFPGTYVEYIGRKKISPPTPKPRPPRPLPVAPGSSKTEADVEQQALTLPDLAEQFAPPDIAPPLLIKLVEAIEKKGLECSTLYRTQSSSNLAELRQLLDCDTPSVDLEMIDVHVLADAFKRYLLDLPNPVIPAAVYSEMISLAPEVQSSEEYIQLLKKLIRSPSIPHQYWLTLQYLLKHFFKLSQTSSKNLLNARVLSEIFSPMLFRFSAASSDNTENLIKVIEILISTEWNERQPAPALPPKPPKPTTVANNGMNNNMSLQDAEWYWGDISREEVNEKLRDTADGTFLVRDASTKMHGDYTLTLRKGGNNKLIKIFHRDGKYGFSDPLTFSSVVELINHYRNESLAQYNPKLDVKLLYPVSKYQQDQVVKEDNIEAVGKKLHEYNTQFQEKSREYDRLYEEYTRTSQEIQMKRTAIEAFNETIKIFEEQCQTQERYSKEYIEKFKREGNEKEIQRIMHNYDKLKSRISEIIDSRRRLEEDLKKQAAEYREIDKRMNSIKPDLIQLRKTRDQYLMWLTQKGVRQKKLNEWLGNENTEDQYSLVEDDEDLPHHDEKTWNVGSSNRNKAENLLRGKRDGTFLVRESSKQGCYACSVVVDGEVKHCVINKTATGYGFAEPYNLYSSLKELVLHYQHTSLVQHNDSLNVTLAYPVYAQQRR
READOUT: pIC50

{"CHEMICAL SMILES": "C[C@H](NC(=O)c1nc(-c2cccc(S(N)(=O)=O)c2)cnc1N)c1cc2cccc(Cl)c2c(=O)n1-c1ccccc1", "RESULT": "5.00 to 6.00"}
{"CHEMICAL SMILES": "C[C@H](NC(=O)c1c(N)nn2cccnc12)c1cc2cccc(Cl)c2c(=O)n1CCNCCO", "RESULT": "6.00 to 7.00"}
{"CHEMICAL SMILES": "Cc1cnc(C(=O)N[C@@H](C)c2cc3cccc(C(F)(F)F)c3c(=O)n2-c2ccccc2)c(N)n1", "RESULT": "< 5.00"}
